System: M14 melanoma
Assay: NCI-60 one-dose screen, 48 h
Conditions: 10 µM unless noted
Method: Growth inhibition of the M14 human tumor cell line is measured as a screen for anti-cancer activity. Cells are grown in 96 well plates and exposed to the test compound for 48 hours. Compounds are tested at a single concentration, which is 10^-5 M for most compounds. The reported endpoint is percent growth (GI% or GIPRCNT), where numbers from 0 - 100% represent growth inhibition, and numbers from -100% - 0 represent cell death. For example, a value of 40 represents 60% growth inhibition. […]
The panel holds about 83,000 compounds, 20% with a hit somewhere; the sample as a whole holds those more often. Active and inactive are the calls of the source. The calls were made as follows: active = growth percent below 10; inactive = the rest.
Classes used: active, inactive

[[record]]
compound_structure_string = "COc1ccc(C(=O)/C=C/c2cccnc2)cc1S(N)(=O)=O"
tested_target = "M14 melanoma"
label_value = "inactive"

[[record]]
compound_structure_string = "CSc1ccccc1NC(=O)c1ccc2nn(/C(C#N)=C/c3ccccn3)nc2c1"
tested_target = "M14 melanoma"
label_value = "active"

[[record]]
compound_structure_string = "COc1cccc(-c2nc(Nc3ccc(S(N)(=O)=O)cc3)c3ccccc3n2)c1"
tested_target = "M14 melanoma"
label_value = "inactive"

[[record]]
compound_structure_string = "N#Cc1c(-c2cccnc2)cc(-c2ccc3ccccc3c2)[nH]c1=O"
tested_target = "M14 melanoma"
label_value = "inactive"


Origin of measurements: PubChem BioAssay (NCI)
